Tested on: Human immunodeficiency virus type 1 reverse transcriptase (Human immunodeficiency virus 1), Q72547 [UNDEFINED MUTATION]
Conditions: time 140.0 min, at 5 mM
experimentalReadout: inhibition

INSERT INTO assay_data (cpdsmiles, testresult) VALUES
  ('N#Cc1c(N)cccc1F', '75%'),
  ('NCc1cccc(Br)c1', '96%'),
  ('O=C(O)c1cc2cc(F)ccc2[nH]1', '99%'),
  ('Cc1c(CO)cnn1-c1ccc(F)cc1', '55%'),
  ('Ic1cn[nH]c1', '24%'),
  ('Oc1ccc(C(F)(F)F)cn1', '35%'),
  ('Nc1ccncc1Br', '99%'),
  ('NCCc1c(F)cccc1Cl', '99%'),
  ('CNc1ccc(C(F)(F)F)cc1N', '35%'),
  ('Brc1cn[nH]c1', '22%'),
  ('O=c1[nH]cnc2cccc(F)c12', '55%');

----------
Target: Human immunodeficiency virus type 1 reverse transcriptase (Human immunodeficiency virus 1, UniProt Q72547)
Assay: Inhibition of HIV-1 reverse transcriptase RT52A mutant using ABTS as substrate preincubated with compound for 1 hr followed by template-primer addition for 1 hr and measured 20 mins after substrate addition by absorbance based Roche colorimetric assay
pIC50: −log10 of the molar value.
// reported pIC50 per item
experimentalReadout: pIC50

INSERT INTO assay_data (cpdsmiles, experimentalreadout, testresult) VALUES
  ('Nc1ccncc1Br', 'pIC50', 2.68),
  ('O=C(O)c1cc2cc(F)ccc2[nH]1', 'pIC50', 2.54),
  ('NCCc1c(F)cccc1Cl', 'pIC50', 2.68);
